Target: NUDT9trC RIL (Homo sapiens, UniProt Q9BW91, E230I/F231L)
Sequence (Q9BW91 59-339 E230I/F231L): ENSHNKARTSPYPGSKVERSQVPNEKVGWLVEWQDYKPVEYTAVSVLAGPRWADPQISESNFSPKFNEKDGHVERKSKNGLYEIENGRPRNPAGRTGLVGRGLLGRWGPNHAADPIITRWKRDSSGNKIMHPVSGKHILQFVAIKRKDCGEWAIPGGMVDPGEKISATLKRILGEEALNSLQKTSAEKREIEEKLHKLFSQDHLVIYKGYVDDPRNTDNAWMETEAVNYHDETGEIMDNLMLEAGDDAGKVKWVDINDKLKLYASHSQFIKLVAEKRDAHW
Assay: isothermal titration calorimetry, one-site fit
Conditions: Mg2+ (5 mM MgCl2) as cofactor; 20 mM HEPES pH 7.5, 150 mM NaCl, 20 °C; catalytically inactive mutant
metric: pKd
Convention used: pKd is expressed as -log10 of the molar concentration.

compound: Nc1ncnc2c1ncn2[C@H]1C[C@H](O)[C@@H](COP(=O)(O)OP(=O)(O)OC[C@H]2OC(O)[C@H](O)[C@@H]2O)O1 (some centres unmarked)
pKd: 7.92

Now examine the next entry.
Inquiry: Given the compound Nc1ncnc2c1ncn2[C@@H]1O[C@H](COP(=O)(O)OP(=O)(O)OC[C@H]2OC(O)[C@H](O)[C@@H]2O)[C@@H](O)[C@H]1O (some centres unmarked) , what is its reported pKd?
Reply text: 7.80
